These measurements were taken from patent US7897789B2.

Tested on: DBF mice
Assay: Mouse hypercalcemia assay
Conditions: oral gavage for 6 days, serum ionized calcium 6 hours after last dosing; Table 1
reported.endpoint: Mouse Hypercal

Example cases with answers are listed next.
- CCC(CC)(c1ccc(OCC(=O)C(C)(C)C)c(C)c1)c1ccc2sc(C(=O)O)cc2c1: >300 µg/kg/day
- CCC(CC)(c1ccc(OCC(=O)C(C)(C)C)c(C)c1)c1ccc2cc(C(=O)NCC(=O)O)sc2c1: >300 µg/kg/day
- CCC(CC)(c1ccc(OCC(=O)C(C)(C)C)c(C)c1)c1cc2cc(C(=O)NCC(=O)O)ccc2s1: >300 µg/kg/day
- CCC(CC)(c1ccc(OCC(=O)C(C)(C)C)c(C)c1)c1cc2cc(C(=O)N(C)C)ccc2s1: >1000 µg/kg/day

What value of Mouse Hypercal on DBF mice does CCC(CC)(c1ccc(OCC(=O)C(C)(C)C)c(C)c1)c1cc2cc(C(=O)O)ccc2s1 have? >300 µg/kg/day
